B1: TPR 5TU (parent)
chain: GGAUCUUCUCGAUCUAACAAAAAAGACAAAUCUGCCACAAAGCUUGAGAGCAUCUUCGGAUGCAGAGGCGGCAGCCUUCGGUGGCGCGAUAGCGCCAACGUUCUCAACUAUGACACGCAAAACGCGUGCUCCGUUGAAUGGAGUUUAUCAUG

Variants of: B1
assayText: polymerase ribozyme fitness, log enrichment relative to wild type (log ratio); higher = more active; in vitro selection for triplet polymerase activity
Fewer inactive variants are shown than the library holds.
The label depends only on polymerase ribozyme fitness (log ratio): class 1 if it is at least -3, class 0 if it is smaller.

INSERT INTO results (variantspec, classlabel) VALUES
  ('A20G A21C G92A C108G', 'class 0'),
  ('A49C C96G', 'class 0'),
  ('G83A U104G A120G', 'class 1'),
  ('C36U A49U U82A A107C G133C', 'class 0'),
  ('U55A A66U C79U G80C C87G C116U U145G', 'class 0');

Given `U130A` , state whether its polymerase ribozyme fitness (log ratio) is at least -3. class 1

Next entry: A49C G141U class 0

Next entry: C8U A30U C32U A64G C76A A97G A107U C108U A110G C116A class 0

Next entry: A20C C36U A47C class 1

Next entry: A20G U56A class 1
